- assayOverview: Pharmacokinetics of tyrosol metabolites in rat plasma after single oral dose of tyrosol (HPLC)
- Assay type: in vivo, Sprague-Dawley rats
- testConditions: male, Sprague-Dawley, tyrosol oral 200 mg/kg b.w.
measuredEndpoint: half-life

Can you look up the measured half-life of O=S(=O)(O)Oc1ccc(CCO)cc1 [T4S, tyrosol-4-sulfate] for me?
12.1 min

###

- assayOverview: Pharmacokinetics of tyrosol metabolites in rat urine after single oral dose of tyrosol (HPLC)
- Assay type: in vivo, Sprague-Dawley rats
- testConditions: male, Sprague-Dawley, rat, urine, po, 100 mg/kg, tyrosol oral 100 mg/kg b.w., read-out: Tmax
measuredEndpoint: Tmax (h)
Answers are plain numbers, in h.

For the molecule shown here, O=S(=O)(O)Oc1ccc(CCO)cc1 [T4S, tyrosol-4-sulfate] , give the reported Tmax.
2

###

- assayOverview: Pharmacokinetics of tyrosol metabolites in rat plasma after single oral dose of tyrosol (HPLC)
- Type: in vivo, Sprague-Dawley rats
- testConditions: male, Sprague-Dawley, tyrosol oral 100 mg/kg b.w.
measuredEndpoint: Tmax (min)
Answers are plain numbers, in min.

Fill in: Tmax of O=S(=O)(O)Oc1ccc(CCO)cc1 [T4S, tyrosol-4-sulfate] is ___
10.7

###

- assayOverview: Pharmacokinetics of tyrosol metabolites in rat urine after single oral dose of tyrosol (HPLC)
- Assay type: in vivo, Sprague-Dawley rats
- testConditions: male, Sprague-Dawley, tyrosol oral 100 mg/kg b.w.
- Experimental: Urine samples were collected at 0–1, 1–2, 2–4, 4–8, and 8–24 h after administration of tyrosol. […] A non-compartmental pharmacokinetics analysis for each tyrosol metabolite was performed using PK solution software version 2.0 (Summit Research Services, Montrose, CO, USA). […] The area under the curve (AUC) for the plasma concentration over time was calculated using the trapezoidal rule.
measuredEndpoint: half-life (h)
One number for each entry, in h.

Given the compound O=S(=O)(O)Oc1ccc(CCO)cc1 [T4S, tyrosol-4-sulfate] , what is its reported half-life?
1.2

###

- assayOverview: Pharmacokinetics of tyrosol metabolites in rat plasma after single oral dose of tyrosol (HPLC)
- Format: in vivo, Sprague-Dawley rats
- testConditions: male, Sprague-Dawley, tyrosol oral 200 mg/kg b.w., n = 3, read-out: AUC (0-8h)
measuredEndpoint: AUC(0-t) (ng·h/mL)
Give bare numbers, in ng·h/mL.

Fill in: AUC(0-t) of O=S(=O)(O)Oc1ccc(CCO)cc1 [T4S, tyrosol-4-sulfate] is ___
6600

###

- assayOverview: Pharmacokinetics of tyrosol metabolites in rat urine after single oral dose of tyrosol (HPLC)
- Type: in vivo, Sprague-Dawley rats
- testConditions: male, Sprague-Dawley, tyrosol oral 200 mg/kg b.w.
measuredEndpoint: half-life (min)
Numbers only, in min.

Name the recorded half-life for O=S(=O)(O)Oc1ccc(CCO)cc1 [T4S, tyrosol-4-sulfate] .
72

###

- assayOverview: Pharmacokinetics of tyrosol metabolites in rat plasma after single oral dose of tyrosol (HPLC)
- Format: in vivo, Sprague-Dawley rats
- testConditions: male, Sprague-Dawley, tyrosol oral 200 mg/kg b.w.
measuredEndpoint: Tmax (min)
Numbers only, in min.

Which measured Tmax value corresponds to O=S(=O)(O)Oc1ccc(CCO)cc1 [T4S, tyrosol-4-sulfate] ?
10.6

###

- assayOverview: Pharmacokinetics of tyrosol metabolites in rat plasma after single oral dose of tyrosol (HPLC)
- Type: in vivo, Sprague-Dawley rats
- testConditions: male, Sprague-Dawley, tyrosol oral 100 mg/kg b.w., n = 3, read-out: AUC (0-8h)
measuredEndpoint: AUC(0-t) (ng·h/mL)
Give bare numbers, in ng·h/mL.

What value of AUC(0-t) has been reported for the following compound? O=S(=O)(O)Oc1ccc(CCO)cc1 [T4S, tyrosol-4-sulfate]
2500
